Where a name gives a salt, the structure may show the parent alone.
Consider the following molecules; for each one, report its melting point.

Past entries and their recorded results:
molecule | melting point
COc1cc2nc(-c3cc(C)c(OCC(N)=O)c(C)c3)[nH]c(=O)c2cc1OC [Example 55] | 354 to 356 °C
Cc1cc(-c2cc3ncccc3c(=O)[nH]2)cc(C)c1O (as salt: HCl) [Example 8] | > 350 °C
COc1cc(OC)c2cnc(-c3cc(C)c(OCCN4CCOCC4)c(C)c3)cc2c1 (as salt: HCl) [Example 22] | 239 to 240 °C

// each listed molecule needs a value for melting point
1. COc1cc(OC)c2c(=O)[nH]c(-c3ccc(N(CCO)CCO)cc3)nc2c1 [Example 46]
2. COc1cc(OC)c2c(=O)[nH]c(-c3ccc(CCC(=O)O)cc3)nc2c1 [Example 53]
3. COc1cc(OC)c2c(=O)[nH]c(-c3cc(C)c(OCCN4CCOCC4)c(C)c3)nc2c1 (as salt: hydrochloride) [Example 21]
4. COc1cc(OC)c2c(=O)[nH]c(-c3ccc(N(C)C)c4ccccc34)nc2c1 [Example 37]
5. O=C(O)COc1ccc(-c2nc3ccccc3c(=O)[nH]2)cc1 [Example 39]

[out]
1. 249 to 251 °C
2. 250.6 to 251.1 °C
3. 185 to 187 °C
4. 269 to 271 °C
5. 285 to 287 °C
